Entry source: ChEMBL document CHEMBL5316329

# Run description: Tmax in Sprague-Dawley rat at 2 mg/kg, iv
# Type: ADME, organism-based
# Stated conditions: in vivo
Measure name: Tmax (min)

* Cc1cc(/C=C/C#N)cc(C)c1Cc1nc(NC2CCN(Cc3ccc(C(N)=O)cc3)CC2)ncc1-c1cncnc1 | 1.98

* * *

pIC50: −log10 of the molar value.
Notes on pIC50 obtained with Human immunodeficiency virus type 1 reverse transcriptase (Human immunodeficiency virus 1).
Measure name: pIC50

- Cc1cc(/C=C/C#N)cc(C)c1Oc1nc(NC2CCN(Cc3ccc(S(C)(=O)=O)cc3)CC2)ncc1-c1ccc(N)cc1: 6.80
- CC(=O)c1ccc(-c2cnc(NC3CCN(Cc4ccc(S(C)(=O)=O)cc4)CC3)nc2Oc2c(C)cc(/C=C/C#N)cc2C)cc1: 6.70
- Cc1cc(/C=C/C#N)cc(C)c1Oc1nc(NC2CCN(Cc3ccc(S(N)(=O)=O)cc3)CC2)ncc1-c1ccc2c(c1)OCO2: 6.91
- Cc1cc(/C=C/C#N)cc(C)c1Oc1nc(NC2CCN(Cc3ccc(S(C)(=O)=O)cc3)CC2)ncc1-c1cccc(F)c1: 6.64

* * *

# Test system: Human immunodeficiency virus 1
# Run description: Antiviral activity against NNRTI-resistant HIV-1 RES056 infected in human MT4 cells assessed as virus-induced cytopathicity treated for 5 days by MTT assay
# Type: functional, organism-based
# Stated conditions: Human immunodeficiency virus 1, RES056, MT4, 120 h
Measure name: EC50 (nM)

- Cc1cc(/C=C/C#N)cc(C)c1Oc1nc(NC2CCN(Cc3ccc(S(C)(=O)=O)cc3)CC2)ncc1-c1ccc(O)cc1: 50.9
- Cc1cc(/C=C/C#N)cc(C)c1Oc1nc(NC2CCN(Cc3ccc(S(N)(=O)=O)cc3)CC2)ncc1-c1ccccc1N: 91
- Cc1cc(/C=C/C#N)cc(C)c1Oc1nc(NC2CCN(Cc3ccc(S(N)(=O)=O)cc3)CC2)ncc1-c1cccc(N)c1: 25.8
- Cc1cc(/C=C/C#N)cc(C)c1Oc1nc(NC2CCN(Cc3ccc(S(N)(=O)=O)cc3)CC2)ncc1-c1cccc(F)c1: 132
- Cc1cc(/C=C/C#N)cc(C)c1Oc1nc(NC2CCN(Cc3ccc(C(N)=O)cc3)CC2)ncc1-c1ccc(F)cc1: 53.5
- Cc1cc(/C=C/C#N)cc(C)c1Oc1nc(NC2CCN(Cc3ccc(C(N)=O)cc3)CC2)ncc1-c1ccc(N)cc1: 18.9
- CC(=O)c1ccc(-c2cnc(NC3CCN(Cc4ccc(S(C)(=O)=O)cc4)CC3)nc2Oc2c(C)cc(/C=C/C#N)cc2C)cc1: 93.4

* * *

# Assay target: Human immunodeficiency virus type 1 reverse transcriptase (Human immunodeficiency virus 1)
# Run description: Inhibition of wild-type HIV-1 reverse transcriptase assessed as inhibition of biotin-dUTP incorporation
pEC50: −log10 of the molar value.
Measure name: pEC50

* Cc1cc(/C=C/C#N)cc(C)c1Cc1nc(NC2CCN(Cc3ccc(C(N)=O)cc3)CC2)ncc1-c1cncnc1 | 8.31

* * *

We begin with a simple list: items and their reported selectivity ratio.
# Run description: Selectivity index, ratio of CC50 for human MT4 cells to EC50 for wild-type HIV-1 IIIB infected in human MT4 cells
# Format: toxicity, cell-based
# Stated conditions: read-out: Selectivity Index
Measure name: selectivity ratio

• Cc1cc(/C=C/C#N)cc(C)c1Oc1nc(NC2CCN(Cc3ccc(S(N)(=O)=O)cc3)CC2)ncc1-c1cccc(N)c1 = 1130
• Cc1cc(/C=C/C#N)cc(C)c1Oc1nc(NC2CCN(Cc3ccc(S(N)(=O)=O)cc3)CC2)ncc1-c1ccccc1F = 2760
• Cc1cc(/C=C/C#N)cc(C)c1Cc1nc(NC2CCN(Cc3ccc(S(N)(=O)=O)cc3)CC2)ncc1-c1cnc(N)nc1 = 617
• Cc1cc(/C=C/C#N)cc(C)c1Oc1nc(NC2CCN(Cc3ccc(C(N)=O)cc3)CC2)ncc1-c1cccc(N)c1 = 1480
• Cc1cc(/C=C/C#N)cc(C)c1Oc1nc(NC2CCN(Cc3ccc(C(N)=O)cc3)CC2)ncc1-c1ccc(O)cc1 = 3760
• Cc1cc(/C=C/C#N)cc(C)c1Oc1nc(NC2CCN(Cc3ccc(S(C)(=O)=O)cc3)CC2)ncc1-c1cccc(N)c1 = 682
• Cc1cc(/C=C/C#N)cc(C)c1Cc1nc(NC2CCN(Cc3ccc(C(N)=O)cc3)CC2)ncc1-c1cncnc1 = 4630
• Cc1cc(/C=C/C#N)cc(C)c1Oc1nc(NC2CCN(Cc3ccc(S(N)(=O)=O)cc3)CC2)ncc1-c1ccc2c(c1)OCO2 = 1170
• Cc1cc(/C=C/C#N)cc(C)c1Oc1nc(NC2CCN(Cc3ccc(S(C)(=O)=O)cc3)CC2)ncc1-c1cccc(O)c1 = 756
